The origin of these recorded values is the supplement of paper PMC4862054.

tested on: CAL-148; experiment: drug sensitivity score (DSS), CellTox Green (DSS (AUC-based score)); higher = stronger drug effect (viability inhibition or cytotoxicity); extreme values may be limits of the assay; conditions: incubation time: 72 h
assay.metric: drug sensitivity score
Give the figure by itself; no unit, no explanation.

Examples with answers:
sample.smiles | drug sensitivity score
FC(F)c1nc2ccccc2n1-c1nc(N2CCOCC2)nc(N2CCOCC2)n1 | 0
Cn1cnc2c(F)c(Nc3ccc(Br)cc3F)c(C(=O)NOCCO)cc21 | 1.61

Which drug sensitivity score is reported for this compound? COC(=O)C[C@](O)(CCCC(C)(C)O)C(=O)O[C@@H]1C(OC)=C[C@]23CCCN2CCc2cc4c(cc2[C@H]13)OCO4
6.49

----------
test system: HDQ-P1; experiment: normalised viability (% of control), CellTiter-Blue; higher = more viable cells (about 100 = DMSO control); conditions: 0.3 nM; incubation time: 72 h
assay.metric: normalised viability
Quick note: number first, unit second.

Examples with answers:
compound | normalised viability
COc1cccc2c1C(=O)c1c(O)c3c(c(O)c1C2=O)C[C@@](O)(C(C)=O)C[C@@H]3O[C@H]1C[C@H](N)[C@H](O)[C@H](C)O1 [Daunorubicin] | 133%
CCS(=O)(=O)c1cccc(-c2cc(C(=O)NC3CCN(C)CC3)c(C)c3[nH]c4ncc(C)cc4c23)c1 [TAK-901] | 111%
CCOc1cc2ncc(C#N)c(Nc3ccc(OCc4ccccn4)c(Cl)c3)c2cc1NC(=O)/C=C/CN(C)C [Neratinib] | 123%

--- query ---
Which normalised viability is reported for this compound? Cn1cnc2c(F)c(Nc3ccc(Br)cc3F)c(C(=O)NOCCO)cc21 [MEK-162]
110%

----------
Quick reference: normalised response of the listed items.
system: MDA-MB-453; assay: normalised response (% of control), CellTiter-Glo; higher = more viable cells (100 = DMSO, 0 = benzethonium chloride kill control); settings: incubation time: 72 h
Report the value in % with no unit label.

Which normalised response is reported for this molecule? COC(=O)C[C@](O)(CCCC(C)(C)O)C(=O)O[C@@H]1C(OC)=C[C@]23CCCN2CCc2cc4c(cc2[C@H]13)OCO4 [Omacetaxine] (10 nM)
109

Which normalised response is reported for this molecule? CCS(=O)(=O)c1cccc(-c2cc(C(=O)NC3CCN(C)CC3)c(C)c3[nH]c4ncc(C)cc4c23)c1 [TAK-901] (100 nM)
160

----------
test system: MCF-10A; assay: normalised response (% of control), CellTiter-Glo; higher = more viable cells (100 = DMSO, 0 = benzethonium chloride kill control); conditions: incubation time: 72 h
assay.metric: normalised response (%)
Report the value in % with no unit label.

compound | endpoint.result
CCOc1cc2ncc(C#N)c(Nc3ccc(OCc4ccccn4)c(Cl)c3)c2cc1NC(=O)/C=C/CN(C)C [Neratinib] (10 nM) | 98.1

Which normalised response is reported for this compound? C[C@@H]1CCN(C(=O)CC#N)C[C@@H]1N(C)c1ncnc2[nH]ccc12 [Tofacitinib] (50 nM)
101

Which normalised response is reported for this compound? CCS(=O)(=O)c1cccc(-c2cc(C(=O)NC3CCN(C)CC3)c(C)c3[nH]c4ncc(C)cc4c23)c1 [TAK-901] (10 nM)
104

Which normalised response is reported for this compound? COc1c(C)cnc(Cn2cnc3c(Cl)nc(N)nc32)c1C [BIIB021] (100 nM)
100

----------
Quick reference: normalised viability of the listed items.
system: MDA-MB-468; assay: normalised viability (% of control), CellTiter-Blue; higher = more viable cells (about 100 = DMSO control); settings: 100 nM; incubation time: 72 h
Report the value in % with no unit label.

sample.smiles | normalised viability, %
CCOc1cc2ncc(C#N)c(Nc3ccc(OCc4ccccn4)c(Cl)c3)c2cc1NC(=O)/C=C/CN(C)C | 114

Which normalised viability is reported for this compound? COc1cccc2c1C(=O)c1c(O)c3c(c(O)c1C2=O)C[C@@](O)(C(C)=O)C[C@@H]3O[C@H]1C[C@H](N)[C@H](O)[C@H](C)O1
52.2

Which normalised viability is reported for this compound? Cn1c(=O)c(F)c(Nc2ccc(I)cc2F)c2c(=O)n(C[C@@H](O)CO)cnc21
84.6

Which normalised viability is reported for this compound? CS(=O)(=O)OCCCCOS(C)(=O)=O
99.1

----------
tested on: CAL-51; assay: drug sensitivity score (DSS), CellTiter-Glo (DSS (AUC-based score)); higher = stronger drug effect (viability inhibition or cytotoxicity); extreme values may be limits of the assay; conditions: incubation time: 72 h
Quick reference: drug sensitivity score of the listed items.
Give the figure by itself; no unit, no explanation.

Examples with answers:
compound | drug sensitivity score
O=c1[nH]c(=O)n([C@H]2C[C@H](O)[C@@H](CO)O2)cc1F | 17.3
O=c1[nH]cc(F)c(=O)[nH]1 | 0
FC(F)c1nc2ccccc2n1-c1nc(N2CCOCC2)nc(N2CCOCC2)n1 | 11.6

--- query ---
What drug sensitivity score appears in the records for this compound with CAL-51? CS(=O)(=O)OCCCCOS(C)(=O)=O
0

----------
tested on: MCF-10A; experiment: normalised response (% of control), CellTiter-Glo; higher = more viable cells (100 = DMSO, 0 = benzethonium chloride kill control); details: incubation time: 72 h
assay.metric: normalised response (%)
Report the value in % with no unit label.

molecule | normalised response / %
COc1ncc(-c2ccc3nccc(-c4ccnnc4)c3c2)cc1NS(=O)(=O)c1ccc(F)cc1F (10 nM) | 63.7
C[C@@H]1C=C2C(=O)O[C@@H]3CC[C@H](C1)[C@]23O [Galiellalactone] (500 nM) | 109
COc1cc(Nc2ncc(F)c(Nc3ccc4c(n3)NC(=O)C(C)(C)O4)n2)cc(OC)c1OC [Tamatinib] (100 nM) | 104

--- query ---
Which normalised response is reported for this molecule? O=c1[nH]c(=O)n([C@H]2C[C@H](O)[C@@H](CO)O2)cc1F [Floxuridine] (100 nM)
109

----------
tested on: DU-4475; test: drug sensitivity score (DSS), CellTiter-Glo (DSS (AUC-based score)); higher = stronger drug effect (viability inhibition or cytotoxicity); extreme values may be limits of the assay; details: incubation time: 72 h
assay.metric: drug sensitivity score

sample.smiles | drug sensitivity score
CS(=O)(=O)OCCCCOS(C)(=O)=O | 0
CC(=O)O[C@H]1C(=O)[C@@]2(C)[C@H]([C@H](OC(=O)c3ccccc3)[C@]3(O)C[C@H](OC(=O)[C@H](O)[C@@H](NC(=O)c4ccccc4)c4ccccc4)C(C)=C1C3(C)C)[C@]1(OC(C)=O)CO[C@@H]1C[C@@H]2O | 10.4
CCS(=O)(=O)c1cccc(-c2cc(C(=O)NC3CCN(C)CC3)c(C)c3[nH]c4ncc(C)cc4c23)c1 | 0
COc1ncc(-c2ccc3nccc(-c4ccnnc4)c3c2)cc1NS(=O)(=O)c1ccc(F)cc1F | 7.12
COC(=O)C[C@](O)(CCCC(C)(C)O)C(=O)O[C@@H]1C(OC)=C[C@]23CCCN2CCc2cc4c(cc2[C@H]13)OCO4 | 30.6

What drug sensitivity score appears in the records for this compound with DU-4475? CC(C)(C)c1cc(NC(=O)Nc2ccc(-c3cn4c(n3)sc3cc(OCCN5CCOCC5)ccc34)cc2)no1
0

What drug sensitivity score appears in the records for this compound with DU-4475? CCCC(CCC)C(=O)O
0

----------
Quick reference: EC50, CellTiter-Glo of the listed items.
test system: DU-4475; conditions: 72 h
Report the value in nM with no unit label.

Examples with answers:
sample.smiles | tested.system | assay.metric | endpoint.result
Cn1cnc2c(F)c(Nc3ccc(Br)cc3F)c(C(=O)NOCCO)cc21 | DU-4475 | EC50, CellTiter-Glo | 78.7
COc1cccc2c1C(=O)c1c(O)c3c(c(O)c1C2=O)C[C@@](O)(C(C)=O)C[C@@H]3O[C@H]1C[C@H](N)[C@H](O)[C@H](C)O1 | DU-4475 | EC50, CellTiter-Glo | 211
COC1=C2C[C@@H](C)C[C@H](OC)[C@H](O)[C@@H](C)/C=C(\C)[C@H](OC(N)=O)[C@@H](OC)/C=C\C=C(/C)C(=O)NC(=CC1=O)C2=O | DU-4475 | EC50, CellTiter-Glo | 2470
COc1ccc(C2=N[C@@H](c3ccc(Cl)cc3)[C@@H](c3ccc(Cl)cc3)N2C(=O)N2CCNC(=O)C2)c(OC(C)C)c1 | DU-4475 | EC50, CellTiter-Glo | 2950

--- query ---
Which EC50, CellTiter-Glo is reported for this compound? C[C@@]1(C(=O)Nc2ccc(F)nc2)CCCN1c1nc(Nc2cc(C3CC3)n[nH]2)c2cccn2n1
4110

----------
test system: MCF-10A; test: normalised response (% of control), CellTox Green; higher = less cell death (100 = DMSO, 0 = benzethonium chloride kill control); conditions: incubation time: 72 h
Quick reference: normalised response of the listed items.
Report the value in % with no unit label.

Examples with answers:
compound | assay.metric | endpoint.result
Nc1nccc(-c2c(-c3ccc(F)cc3)ncn2C2CCCCC2)n1 (10000 nM) | normalised response | 11.8
Cn1cnc2c(F)c(Nc3ccc(Br)cc3F)c(C(=O)NOCCO)cc21 [MEK-162] (1000 nM) | normalised response | 106

What normalised response appears in the records for this compound with MCF-10A? C[C@@H]1CCN(C(=O)CC#N)C[C@@H]1N(C)c1ncnc2[nH]ccc12 [Tofacitinib] (50 nM)
105

What normalised response appears in the records for this compound with MCF-10A? COc1c(C)cnc(Cn2cnc3c(Cl)nc(N)nc32)c1C [BIIB021] (10000 nM)
52.8

What normalised response appears in the records for this compound with MCF-10A? Cn1cnc2c(F)c(Nc3ccc(Br)cc3F)c(C(=O)NOCCO)cc21 [MEK-162] (100 nM)
104

What normalised response appears in the records for this compound with MCF-10A? Cn1cnc2c(F)c(Nc3ccc(Br)cc3F)c(C(=O)NOCCO)cc21 [MEK-162] (10 nM)
68.5

What normalised response appears in the records for this compound with MCF-10A? C[C@@]1(C(=O)Nc2ccc(F)nc2)CCCN1c1nc(Nc2cc(C3CC3)n[nH]2)c2cccn2n1 (1000 nM)
80.4

What normalised response appears in the records for this compound with MCF-10A? CC(=O)O[C@H]1C(=O)[C@@]2(C)[C@H]([C@H](OC(=O)c3ccccc3)[C@]3(O)C[C@H](OC(=O)[C@H](O)[C@@H](NC(=O)c4ccccc4)c4ccccc4)C(C)=C1C3(C)C)[C@]1(OC(C)=O)CO[C@@H]1C[C@@H]2O [Paclitaxel] (1000 nM)
1.34

What normalised response appears in the records for this compound with MCF-10A? O=c1[nH]cc(F)c(=O)[nH]1 [Fluorouracil] (1000 nM)
111

What normalised response appears in the records for this compound with MCF-10A? CS(=O)(=O)CCNCc1ccc(-c2ccc3ncnc(Nc4ccc(OCc5cccc(F)c5)c(Cl)c4)c3c2)o1 [Lapatinib] (10 nM)
100
